- tested.target: human Peroxisome Proliferator-activated Receptor delta (PPARd), PPARD (gene 5467) (UniProt Q03181)
- Sequence (Q03181 whole entry, looked up): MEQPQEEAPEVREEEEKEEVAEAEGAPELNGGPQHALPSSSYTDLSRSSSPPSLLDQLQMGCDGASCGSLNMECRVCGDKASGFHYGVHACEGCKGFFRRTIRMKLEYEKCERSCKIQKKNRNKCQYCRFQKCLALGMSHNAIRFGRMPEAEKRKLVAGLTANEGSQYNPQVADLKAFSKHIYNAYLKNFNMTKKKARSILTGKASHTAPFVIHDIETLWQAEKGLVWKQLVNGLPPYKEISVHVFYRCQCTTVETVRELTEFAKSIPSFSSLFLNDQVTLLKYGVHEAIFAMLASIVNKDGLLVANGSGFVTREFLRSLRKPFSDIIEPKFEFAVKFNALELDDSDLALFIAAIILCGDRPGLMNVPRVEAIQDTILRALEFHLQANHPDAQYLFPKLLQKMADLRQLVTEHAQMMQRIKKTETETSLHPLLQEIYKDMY
- protocol.details: ATG_PPARd_TRANS: Attagene TRANS-FACTORIAL HepG2 Assay for human Peroxisome Proliferator-activated Receptor delta (PPARd) (AID 2283002)
Results filed as inconclusive are left out. Active and inactive are the calls of the source. Rule for the calls: active = hit-call score of the fitted dose curve at least 0.9, where 1 is the maximum; inconclusive = response in the unintended direction; inactive = score below 0.9.

| compound | AC50 |
| --- | --- |
| Cc1c[nH]c(=O)[nH]c1=O | inactive |
| CCCCCCCCCCCC(=O)N(C)CC(=O)O | 35.2 µM (active) |
| CC(C)c1ccc2ncccc2c1 | inactive |
| O=c1c(O)c(-c2ccc(O)cc2O)oc2cc(O)cc(O)c12 | inactive |
| Cc1cc(C)n(CO)n1 | inactive |
| CC(C)(CO)C(O)C(=O)NCCCO (stereo unspecified) | inactive |

---

- protocol.details: ATG_Oct_MLP_CIS: Attagene CIS-FACTORIAL HepG2 Assay for human Octamer-Binding Transcription Factor (Oct) (AID 2282993)
- condition.summary: HepG2 Attagene cis-factorial Oct reporter, mRNA; actives raise or lower the signal
Calls of active or inactive are those of the source. Rule for the calls: active = hit-call score of the fitted dose curve at least 0.9, where 1 is the maximum; inactive = score below 0.9.
Possible outcomes: 1 (yes) for active, 0 (no) for inactive

| molecule | answer.label |
| --- | --- |
| CC(C)(CO)COC(=O)C(C)(C)CO | 0 (no) |
| CC(=O)OC1CCCCC1 | 0 (no) |
| CCCCC/C=C\C/C=C\CCCCCCCC(=O)O | 0 (no) |
| C=C[Si](OCCOC)(OCCOC)OCCOC | 0 (no) |
| Cc1cccc(C(C)(C)C)c1O | 0 (no) |
| CO[Si](CCCS)(OC)OC | 0 (no) |
| CC1(C)CC(O)CC(C)(C)N1[O] | 0 (no) |
| CCOC(=O)[C@H](O)[C@@H](O)C(=O)OCC | 0 (no) |
| COc1cc(C)ccc1O | 0 (no) |
| O=C(Cl)c1ccc(C(=O)Cl)cc1 | 0 (no) |
| CCOC(=O)/C=C\C(=O)OCC | 0 (no) |
| O=C(C=Cc1ccccc1)OCCc1ccccc1 | 0 (no) |
| O=C(O)C(F)(F)C(F)(F)C(F)(F)C(F)(F)C(=O)O | 0 (no) |
| CC(C)COC(=O)CC(C(=O)OCC(C)C)S(=O)(=O)O (centres undefined) | 0 (no) |
| C=CC(=O)OCC(C)OCC(C)OCC(C)OC(=O)C=C (centres undefined) | 1 (yes) |
| Cc1cc(=O)[nH]c(=O)[nH]1 | 0 (no) |
| C=CC(C)(CCC=C(C)C)OC(=O)C=Cc1ccccc1 (centres undefined) | 0 (no) |
| CC(C)(O)Cc1ccccc1 | 0 (no) |
| C=CC(=O)NCOCCCC | 0 (no) |
| Clc1cccnc1 | 0 (no) |
| COC(Cc1ccccc1)OC | 0 (no) |
| CC(C)=CCl | 0 (no) |
| CCCCOC(=O)CCC(C)=O | 0 (no) |
| CC(C)(CO)C(O)C(=O)NCCCO (centres undefined) | 0 (no) |
| CCCCCCCCCCCCC | 0 (no) |
| Oc1ccc(-c2ccccc2)c(Cl)c1 | 1 (yes) |
| CC(=O)OCc1ccccc1 | 0 (no) |
| CC1(C)[C@@H]2CC[C@@]1(C)C(=O)C2 | 0 (no) |
| CC(C)c1cc(C(C)C)cc(C(C)C)c1 | 0 (no) |
| O=C(Oc1ccccc1)c1ccccc1O | 0 (no) |
| COC(=O)C=Cc1ccccc1 | 0 (no) |
| O=c1c(O)c(-c2ccc(O)cc2O)oc2cc(O)cc(O)c12 | 0 (no) |
| CC1CCC(C(C)(C)S)C(=O)C1 (centres undefined) | 0 (no) |
| Cc1c(Cl)cccc1Cl | 0 (no) |
| CCCCCOC(=O)CCCCC | 0 (no) |
| CCCCOCCOC(=O)COc1ccc(Cl)cc1Cl | 0 (no) |
| CCC1(C)C(=O)N(Cl)C(=O)N1Cl (centres undefined) | 1 (yes) |
| CC(C)CCCCCOC(=O)CS | 0 (no) |
| C=C(C)[C@@H]1CC=C(C)CC1 | 0 (no) |
